System: TO-3-N3-2 (biotin conjugate)
Experiment: pull-down binding Z-score (relative to library population); higher = stronger binding
Details: RNA library: Library-2
Output satisfied for pull-down binding Z-score not less than -0.2; output not satisfied otherwise.

| polymer_sequence | qualitative_label |
| --- | --- |
| AAAUUUACAAAACACCACCAAUUAAAGAUUUUGGUGGUUUUAAUUU [DMSMaPseq_invitro_SARS-CoV-2_Motif_425] | satisfied |
| UAAUUCUUGGCUUAUGUGGUUAAUAAUUA [DMSMaPseq_invitro_SARS-CoV-2_Motif_139] | satisfied |
| UUUUCUGGGA [hsa-mir-4456] | satisfied |
| GAGGAUGCAGGAGAGGAAGGGGGCUUCUUUUUGACGCCUACUUCAUCAGCUGCUCCUC [hsa-mir-4330] | satisfied |
| AUGAGCUAAAAAUCCCCAAGCUCU [hsa-mir-4769] | not satisfied |
| GGGGUUUUUGCCUCCAACUGACUCC [hsa-mir-155] | not satisfied |
| CUGGACUCUAAAUAGAAACCAACCUGCUGCAACAGCAUUGGCCAACACAAUAGAAGUGUUCAGAUCAAAUGGCCUCACGGCCAAUGAGUCUGG | not satisfied |
| GUGAUGAACUGAAGAUUAAUGCGGCUUGUAGAAAGGUUCAACACAUGGUUGUUAAAGCUGCAUUAUUAGCAGACAAAUUCCCAGUUCUUCAC | satisfied |
| GCUUGCAUACGUAGACCAUUCUUAUGUUGUAAAUGCUGUUACGACCAUGUCAUAUCAACAUCACAUAAAUUAGUCUUGUCUGUUAAUCCGUAUGUUUGCAAUGC [DMSMaPseq_invitro_SARS-CoV-2_Motif_294] | not satisfied |
| CUUAGAUUUUUCCAUCUUUGUAUCUAG [hsa-mir-29b-2] | not satisfied |
| GCCUCUUCUCCAUGAGAGGC [hsa-mir-885] | not satisfied |
| UGCAGAUGUGGACUGCUAAAUGCA [hsa-mir-1253] | satisfied |
| GCUGGGGCGCGGGCUUUCGCUUUCAGUCGAGGGCUAGCGAGCGCAGC [hsa-mir-7846] | satisfied |
| UUUACCAUUACUUUCAAUGGCAAA [hsa-mir-548a-3] | not satisfied |
| UGGACUGUGUACCAAUUUCCA [hsa-mir-194-1] | not satisfied |
| CAGGUGCCUCAAAGGGCAUCCCACCUG [hsa-mir-3151] | not satisfied |
| GGGCCACUGCCAGAAGACAAUGAACCAAGUGGUUAUGCCC [IAV_invivo_PB1_2_Motif_5+IAV_invivo_PB1_2_Motif_5] | satisfied |
| UGCUUUGUUAGAAACAAAAAGCA [hsa-mir-4679-1] | satisfied |

###

Test system: TO-3-N3-2 (biotin conjugate)
Assay: pull-down binding Z-score (relative to library population); higher = stronger binding
Conditions: RNA library: Library-2
Entries get a class label from measured pull-down binding Z-score. See ranges: low range (below -0.2), mid range (-0.2 to below 0.09), high range (0.09 or more)

| polymer_sequence | qualitative_label |
| --- | --- |
| AUGCAUGGCUGGUGGCGGCGUGCAG [hsa-mir-6722] | high range |
| GGAAAGGGGAUGCAGAGCCCUGCC [hsa-mir-4647] | high range |
| CUGUUGUUUCAGCUCGACAACAACAG [hsa-mir-3937] | low range |
| GUGAAACAUUUGUCAC [SHAPE_invivo_SARS-CoV-2_Motif_46] | mid range |
| CAAGGGCUCUCCUGAAAGGACAGUAGAGCCCUUG [hsa-mir-4776-1] | mid range |
| UUUGCCUAUAAAAGUAAUGGCAAA [hsa-mir-548an] | mid range |
| ACAUUUUAUCUUACUAAUGAUGU [SHAPE_invivo_SARS-CoV-2_Motif_191] | low range |
| GGACAAUUCACCUAAUUUAGCAUGGCCUCUUAUUGUAACAGCUUUAAGGGCCAAUUCUGCUGUCAAAUUACAGAAUAAUGAGCUUAGUCC | mid range |
| UAUGAGGUUUAGAAGAGCUUUUGGUGAAUACAGUCAUGUAGUUGCCUUUAAUACUUUACUAUUCCUUAUG | low range |
| GUGGUAGUUAUACUAAUGACAAAGCUUGCCCAUUGAUUGCUGC [DMSMaPseq_invitro_SARS-CoV-2_Motif_161] | high range |
| CUGUUUGUUGUCUGAGAAAAAACA [hsa-mir-520g_520h] | mid range |
| CUGCUUUUAAAGGUAAUGGCAA [hsa-mir-548ag-1] | mid range |
| GUGUAUGCUGCUGACCCUGCUAUGCACGCUGCUUCUGGUAAUCUAUUACUAGAUAAACGCACUACGUGCUUUUCAGUAGCUGCAC | high range |
| GACGAUUUGAAUUAAUAAAUUC [hsa-mir-579] | mid range |
| GCUAACAAACAUGCUGAUUUUGACACAUGGUUUAGCCAGCGUGGUGGUAGU | high range |
| UGUGGCCUUUUUGCCUUUUCUAAAGGCCACAU [hsa-mir-1250] | low range |
| GGAAUUGCAAUGUCGAUAGAUAUCCUGCUAAUUCC [DMSMaPseq_invitro_SARS-CoV-2_Motif_342] | low range |
| AGGCAACAUGGCCGAGAGGCCGGGGCCU [hsa-mir-564] | low range |
| UGUUAAGGCAUGUUCAGGAACA [hsa-mir-1265] | high range |

###

System: TO-3-N3 (biotin conjugate)
Experiment: pull-down binding Z-score (relative to library population); higher = stronger binding
Settings: RNA library: Library-2
Output Yes for pull-down binding Z-score not less than -0.3; output No otherwise.

| polymer_sequence | system_name | qualitative_label |
| --- | --- | --- |
| ACUACUGUACUUUACAGCUAGCAGU [hsa-mir-301a] | TO-3-N3 (biotin conjugate) | No |
| GAAAUAGGCUGCGAAGAUAACAGUAUUUC [hsa-mir-3942] | TO-3-N3 (biotin conjugate) | No |
| UAGUGUUACCACAGAAAUUCUACCAGUGUCUAUGACCAAGACAUCAGUAGAUUGUACAAUGUACAUUUGUGGUGAUUCAACUG [DMSMaPseq_invitro_SARS-CoV-2_Multi_72_ComplexLevel_1] | TO-3-N3 (biotin conjugate) | Yes |
| AGUUCAGGAGGUGGCACUGCUGUGUGUGAGCU [hsa-mir-6876] | TO-3-N3 (biotin conjugate) | Yes |
| GUGUGUUACCUAGAAAUAGCACU [hsa-mir-378a] | TO-3-N3 (biotin conjugate) | Yes |
| AUGUCCCUUUAGUUCAAAGU [hsa-mir-2052] | TO-3-N3 (biotin conjugate) | Yes |
| UGCAGUAUCCGCUGUUGCUGCU [hsa-mir-6132] | TO-3-N3 (biotin conjugate) | No |
| GGAGGCACUGCCAGGGCUGCCCAC [hsa-mir-1202] | TO-3-N3 (biotin conjugate) | Yes |
| UGAGGAGCUUAGCAAGUAGCUAAGGCCAGA [hsa-mir-4517] | TO-3-N3 (biotin conjugate) | Yes |
| AGGUUUAUGACUGGGCAUUUCUCACCCAAUGCCCAAUAUUGAACUU [hsa-mir-4431] | TO-3-N3 (biotin conjugate) | No |

###

The sequences listed here are annotated with their pull-down binding Z-score.
Test system: TO-3-N3-2 (biotin conjugate)
Experiment: pull-down binding Z-score (relative to library population); higher = stronger binding
Conditions: RNA library: Library-2

| polymer_sequence | system_name | pull-down binding Z-score |
| --- | --- | --- |
| GACUUCCAUGACAUGAAAUAGGAAGUC [hsa-mir-616] | TO-3-N3-2 (biotin conjugate) | -0.183 |
| CAGCUACACAAGCUG [hsa-mir-631] | TO-3-N3-2 (biotin conjugate) | -0.33 |
| GCAUACAGUCGCUACAGGAUUGGCAACUAUAAAUUAAACACAGACCAUUCCAGUAGCAGUGACAAUAUUGC [SHAPE_invivo_SARS-CoV-2_Motif_513] | TO-3-N3-2 (biotin conjugate) | 0.365 |
| UAGAUACUCAGGAGGGUGAGUAUCUA [hsa-mir-5689] | TO-3-N3-2 (biotin conjugate) | -0.33 |
| UUUAGUAUGCCACAUUUCUAAA [hsa-mir-4282] | TO-3-N3-2 (biotin conjugate) | -0.374 |
| GGCACCUACGAUACCCAGUGCC [hsa-mir-3116-2] | TO-3-N3-2 (biotin conjugate) | -0.0787 |
| AUGUUCACUUGAUUAAUGGCGAAUAU [hsa-mir-1185-2_1185-1] | TO-3-N3-2 (biotin conjugate) | -0.39 |
| CUCAGGAAUUGGAUAAGCUUUUCUGAG [hsa-mir-5194] | TO-3-N3-2 (biotin conjugate) | -0.272 |
| UUAAUUGAAUUGUGCGUGGAUGAGGCUGGUUCUAAAUCACCCAUUCAGUACAUCGAUAUCGGUAAUUAUACAGUUUCCUGUUUACCUUUUACAAUUAA [DMSMaPseq_invitro_SARS-CoV-2_Multi_84_ComplexLevel_1] | TO-3-N3-2 (biotin conjugate) | 0.0361 |
| CCAUUUGCUAUGCAAAUGG | TO-3-N3-2 (biotin conjugate) | -0.677 |
| GUCUGGUAGUCGGAC [IAV_invivo_NA_6_Motif_1+IAV_invivo_NA_6_Motif_1] | TO-3-N3-2 (biotin conjugate) | -0.235 |
| UGGCGGCGGCGAGGACACCGCCGCU [hsa-mir-4469] | TO-3-N3-2 (biotin conjugate) | 0.747 |
| CUACUAGUUUGUAGUAGUUCGUAGCAG [hsa-mir-3919] | TO-3-N3-2 (biotin conjugate) | 0.295 |
| CCUGGAGAGCUGCUGUCUCCAG [hsa-mir-6746] | TO-3-N3-2 (biotin conjugate) | -0.596 |
| GGGCAAGCUGUCUCAAAUGUCC [IAV_invivo_PA_3_Motif_10+IAV_invivo_PA_3_Motif_10] | TO-3-N3-2 (biotin conjugate) | -0.226 |
| AGUGUUGUUUUUUCCCCCGCCAAUAUU [hsa-mir-92b] | TO-3-N3-2 (biotin conjugate) | 0.29 |
| ACAUUAGAUAAUCAAGAUCUCAAUGGUAACUGGUAUGAUUUCGGUGAUUUCAUACAAACCACGCCAGGUAGUGGAGUUCCUGUUGUAGAUUCUUAUUAUUCAUUGU | TO-3-N3-2 (biotin conjugate) | 0.102 |
| CUAUUCAAACAAUUGUUGAGGUUCAACCUCAAUUAGAGAUGGAACUUACACCAGUUGUUCAGACUAUUGAAGUGAAUAGUUUUAG [SHAPE_invivo_SARS-CoV-2_Multi_36_ComplexLevel_1] | TO-3-N3-2 (biotin conjugate) | -0.292 |
| UCGUGUUAAAAAUCUGAAUUCUUCUAGAGUUCCUGAUCUUCUGGUCUAAACGAACUAAAUAUUAUAUUAGUUUUUCUGUUUGGAACUUUAAUUUUAGCCAUGG | TO-3-N3-2 (biotin conjugate) | -0.138 |
| GUGGCUUCAACCAAGUUCAAAGUCAC [hsa-mir-3186] | TO-3-N3-2 (biotin conjugate) | -0.378 |
| CGGAAUUCUCCAGAGCCUCUG [hsa-mir-6889] | TO-3-N3-2 (biotin conjugate) | 0.0162 |
| GCUGGGGACUGGAGAA [hsa-mir-4489] | TO-3-N3-2 (biotin conjugate) | 1.32 |
| UGUGGUCACCCACUCU [hsa-mir-4316] | TO-3-N3-2 (biotin conjugate) | -0.0165 |
| UUUGGCUGCCAAAAGAAAUGGCCAAA [hsa-mir-548at] | TO-3-N3-2 (biotin conjugate) | -0.331 |
| UUUUAUCAUUACUUUUAAUGGCAAAA [hsa-mir-548f-2] | TO-3-N3-2 (biotin conjugate) | 0.834 |
| CUCAGCAUGUUGAGCCCUGUCUCUGGGGAGCUGAC [hsa-mir-6505] | TO-3-N3-2 (biotin conjugate) | -0.142 |
| CCUCGAAGCUGCCUUUAGAAAUGAGG [hsa-mir-4496] | TO-3-N3-2 (biotin conjugate) | -0.192 |
| AGCGCGGCGACCGUAACUCCU [hsa-mir-1237] | TO-3-N3-2 (biotin conjugate) | 0.313 |
| AUUCUGAUGAUCACCUAGCCAGAAU [hsa-mir-5583-2] | TO-3-N3-2 (biotin conjugate) | 0.566 |
| CAAAUCGACUGUCCAAUGGAUUUG [hsa-mir-133a-2] | TO-3-N3-2 (biotin conjugate) | -0.146 |
| GUUAGUACAACUACUAAC [SHAPE_invivo_SARS-CoV-2_Motif_138] | TO-3-N3-2 (biotin conjugate) | -0.398 |
| UAUUGCAAAGAUUUUCAAUA [hsa-mir-3915] | TO-3-N3-2 (biotin conjugate) | -0.307 |
| AACUUUAAUGUU [SHAPE_invitro_SARS-CoV-2_Motif_263] | TO-3-N3-2 (biotin conjugate) | -0.765 |
| CUAACAUGCUUAG [SHAPE_invitro_SARS-CoV-2_Motif_280] | TO-3-N3-2 (biotin conjugate) | -0.299 |
| AGUUAGAAUUCUUAAGUAUCAAAACUAAAU [hsa-mir-4760] | TO-3-N3-2 (biotin conjugate) | 0.252 |
| UGCCUCUCGGGGU [hsa-mir-6073] | TO-3-N3-2 (biotin conjugate) | 0.15 |
| GUUUGGCAGGACAGUUUCCAAGC [hsa-mir-6779] | TO-3-N3-2 (biotin conjugate) | -0.323 |
| GUUACGACUAUUGUAUACCUUACAAUAGUGUAAC | TO-3-N3-2 (biotin conjugate) | 0.229 |
| GGGAGAGGGGCCCAGCUGACCCUCCUGUC [hsa-mir-6879] | TO-3-N3-2 (biotin conjugate) | 0.744 |
| GGGAAAGAAGUCCU [IAV_invivo_HA_4_Motif_8+IAV_invivo_HA_4_Motif_8] | TO-3-N3-2 (biotin conjugate) | -0.278 |
